Kindly supply the reported TGI values for the records listed here.
Tested on: PC-3 prostate
Experiment: NCI tumour cell line growth inhibition, 48 h

Molecule	Endpoint Value
CCOC(=O)Nc1cc2ccccc2c(N=Nc2ccccc2)c1O	> 100 µM
O=C1CSC(c2cccc(Cl)c2)N1c1ccc(-c2ccc(-n3c(-c4ccccc4)nc4ccccc4c3=O)cc2)cc1 (centres undefined)	> 100 µM
CN(C)c1ccc(/C=N/S(=O)(=O)c2ccc(-n3c(-c4ccccc4)nc4c(Br)cc(Br)cc4c3=O)cc2)cc1	> 88 µM

Note: attention shifts to another entry.
Prompt: Please report TGI for the following molecule: O=C(O)c1c(Br)c(Br)c(Br)c(Br)c1C1c2ccc(O)cc2Oc2cc(O)ccc21
Response: > 100 µM
